Target: T1, MutS (Escherichia coli, UniProt P23909 1-853)
T1 sequence: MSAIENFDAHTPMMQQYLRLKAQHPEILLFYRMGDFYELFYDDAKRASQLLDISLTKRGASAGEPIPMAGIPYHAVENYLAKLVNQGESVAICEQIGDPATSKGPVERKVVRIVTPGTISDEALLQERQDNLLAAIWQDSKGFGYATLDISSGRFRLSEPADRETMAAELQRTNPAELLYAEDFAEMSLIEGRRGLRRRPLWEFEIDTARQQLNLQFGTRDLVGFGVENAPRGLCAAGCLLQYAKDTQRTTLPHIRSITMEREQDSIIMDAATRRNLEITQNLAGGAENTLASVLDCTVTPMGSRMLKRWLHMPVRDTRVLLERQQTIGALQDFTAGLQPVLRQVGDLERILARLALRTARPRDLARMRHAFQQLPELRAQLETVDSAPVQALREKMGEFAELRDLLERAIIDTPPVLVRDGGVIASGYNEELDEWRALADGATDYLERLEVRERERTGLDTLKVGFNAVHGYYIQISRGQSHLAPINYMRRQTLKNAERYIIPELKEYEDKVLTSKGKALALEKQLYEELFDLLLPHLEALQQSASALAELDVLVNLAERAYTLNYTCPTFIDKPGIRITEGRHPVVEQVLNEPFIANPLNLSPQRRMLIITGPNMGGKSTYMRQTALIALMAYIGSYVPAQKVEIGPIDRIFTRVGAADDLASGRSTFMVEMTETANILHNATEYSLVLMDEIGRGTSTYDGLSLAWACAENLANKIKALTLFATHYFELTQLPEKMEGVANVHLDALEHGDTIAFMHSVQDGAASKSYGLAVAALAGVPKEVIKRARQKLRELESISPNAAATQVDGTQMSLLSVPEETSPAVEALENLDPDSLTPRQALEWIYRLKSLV
Assay: EMSA; 5 mM Mg2+; 20 pmol unlabeled GC duplex; 20 mM Tris-HCl pH 7.6, 50 mM KCl, 5 mM MgCl2, 1 mM DTT, 0.05 mg/ml BSA, 37 °C 15 min, 20 μl, 2 pmol labeled duplex, 20 pmol unlabeled GC duplex, 5% native PAGE
Conditions: protein: recombinant; tags: His6; chain copies: 2; label: 5'-32P (KN-2 or KN-3 strand); G:T mismatch
propertyMeasured: Kd (nM)

- G:T duplex (dsDNA) DNA 1: GGTCGCTGGGGAATGGGAGTGGCCACGGCG DNA 2: CGCCGTGGCCACTCTCATTCCCCAGCGACC: 75
